test system: Trichoderma hamatum; experiment: Antifungal activity against Trichoderma hamatum assessed as radial growth at 1% after 24 hrs by poison food technique of Flack relative to control; format: functional
MEASURED_METRIC: inhibition (INH) (%)
Give your result in % as a bare value.

Observe how each entry below is paired with its result.
[
  {
    "COMPOUND": "CCOC(=O)C1=C(C)NC(=S)NC1c1ccc(N(C)C)cc1 (stereo unspecified)",
    "ASSAYED_TARGET": "Trichoderma hamatum",
    "MEASURED_METRIC": "inhibition (INH)",
    "RECORDED_MEASUREMENT": 21.42
  },
  {
    "COMPOUND": "CCOC(=O)C1=C(C)NC(=S)NC1c1ccccc1O (stereo unspecified)",
    "ASSAYED_TARGET": "Trichoderma hamatum",
    "MEASURED_METRIC": "inhibition (INH)",
    "RECORDED_MEASUREMENT": 49.73
  },
  {
    "COMPOUND": "CCOC(=O)C1=C(C)NC(=O)NC1c1ccc(N(C)C)cc1 (stereo unspecified)",
    "ASSAYED_TARGET": "Trichoderma hamatum",
    "MEASURED_METRIC": "inhibition (INH)",
    "RECORDED_MEASUREMENT": 0
  },
  {
    "COMPOUND": "CCOC(=O)C1=C(C)NC(=O)NC1c1ccccc1O (stereo unspecified)",
    "ASSAYED_TARGET": "Trichoderma hamatum",
    "MEASURED_METRIC": "inhibition (INH)",
    "RECORDED_MEASUREMENT": 21.05
  },
  {
    "COMPOUND": "CCOC(=O)C1=C(C)NC(=S)NC1c1ccccc1 (stereo unspecified)",
    "ASSAYED_TARGET": "Trichoderma hamatum",
    "MEASURED_METRIC": "inhibition (INH)",
    "RECORDED_MEASUREMENT": 47.78
  }
]

Consider now this further compound.
Would you mind telling me what inhibition (INH) value was observed for CCOC(=O)C1=C(C)NC(=O)NC1c1ccccc1 (stereo unspecified) ?
24.96

====

system: Aspergillus niger; test: Antifungal activity against Aspergillus niger assessed as radial growth at 5% after 72 hrs by poison food technique of Flack relative to control; type: functional
MEASURED_METRIC: inhibition (INH) (%)
Give your result in % as a bare value.

Would you mind telling me what inhibition (INH) value was observed for CCOC(=O)C1=C(C)NC(=O)NC1c1ccc(N(C)C)cc1 (stereo unspecified) ?
88.42

Would you mind telling me what inhibition (INH) value was observed for CCOC(=O)C1=C(C)NC(=O)NC1c1ccccc1O (stereo unspecified) ?
66.07

Would you mind telling me what inhibition (INH) value was observed for CCOC(=O)C1=C(C)NC(=S)NC1c1ccccc1O (stereo unspecified) ?
31.92

====

tested on: Aspergillus niger; assay: Antifungal activity against Aspergillus niger assessed as radial growth at 0.5% after 48 hrs by poison food technique of Flack relative to control; assay type: functional
// reported inhibition (INH) for each item listed
Give your result in % as a bare value.

Observe how each entry below is paired with its result.
[
  {
    "COMPOUND": "CCOC(=O)C1=C(C)NC(=O)NC1c1ccccc1 (stereo unspecified)",
    "inhibition (INH) (%)": 0
  },
  {
    "COMPOUND": "CCOC(=O)C1=C(C)NC(=O)NC1c1ccc(N(C)C)cc1 (stereo unspecified)",
    "inhibition (INH) (%)": 41.66
  },
  {
    "COMPOUND": "CCOC(=O)C1=C(C)NC(=S)NC1c1ccc(N(C)C)cc1 (stereo unspecified)",
    "inhibition (INH) (%)": 0
  },
  {
    "COMPOUND": "CCOC(=O)C1=C(C)NC(=S)NC1c1ccccc1 (stereo unspecified)",
    "inhibition (INH) (%)": 0
  },
  {
    "COMPOUND": "CCOC(=O)C1=C(C)NC(=O)NC1c1ccccc1O (stereo unspecified)",
    "inhibition (INH) (%)": 34.75
  }
]

Consider now this further compound.
Would you mind telling me what inhibition (INH) value was observed for CCOC(=O)C1=C(C)NC(=S)NC1c1ccccc1O (stereo unspecified) ?
0
